Target: human cloned 5-HT7 receptor (Homo sapiens, UniProt P34969)
Construct: expressed in transfected cells
Sequence (P34969 whole entry): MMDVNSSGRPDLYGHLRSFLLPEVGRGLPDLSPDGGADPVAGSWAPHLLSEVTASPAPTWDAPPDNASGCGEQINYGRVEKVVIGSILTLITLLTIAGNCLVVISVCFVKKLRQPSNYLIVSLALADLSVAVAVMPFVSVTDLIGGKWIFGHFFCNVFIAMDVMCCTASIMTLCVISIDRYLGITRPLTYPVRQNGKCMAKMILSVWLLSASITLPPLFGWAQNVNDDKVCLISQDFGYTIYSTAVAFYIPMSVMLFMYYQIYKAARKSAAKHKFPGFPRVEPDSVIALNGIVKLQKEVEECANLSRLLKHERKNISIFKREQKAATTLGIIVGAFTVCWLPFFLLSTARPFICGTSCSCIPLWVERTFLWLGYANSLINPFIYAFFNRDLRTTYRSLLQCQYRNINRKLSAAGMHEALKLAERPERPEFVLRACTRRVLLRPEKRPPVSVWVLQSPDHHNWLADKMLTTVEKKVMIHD
Assay: Radioligand binding assay at human cloned 5-HT7 receptors ([3H]-5-CT competition)
Conditions: read-out: 5-HT7 (pKi) (converted)
experimental_endpoint: log10(Ki) (log10 of the value in nM)

[[record]]
molecule = "COc1cccc(OCCN2CCN(c3ncccc3-c3ccccn3)CC2)c1"
measured_number = 0.73

[[record]]
molecule = "COc1ccc(CNC(=O)CCCCCN2CCN(c3ncccc3-c3ccccn3)CC2)cc1"
measured_number = 0.76

[[record]]
molecule = "COc1ccc(OCC(O)CN2CCN(c3ccccc3-c3ccccc3)CC2)cc1 (stereo not shown)"
measured_number = 1.22

[[record]]
molecule = "COc1cccc(C(F)CN2CCN(c3ncccc3-c3ccccn3)CC2)c1 (stereo not shown)"
measured_number = 0.84

[[record]]
molecule = "COc1ccc(-c2ccccc2N2CCN(CCCCCC(=O)NCc3ccccn3)CC2)cc1"
measured_number = 0.21

[[record]]
molecule = "FCCOc1ccc(OCCN2CCN(c3ncccc3-c3ccccn3)CC2)cc1"
measured_number = 1.30

[[record]]
molecule = "COc1ccc(OCC(O)CN2CCN(c3ncccc3-c3ccncc3)CC2)cc1 (stereo not shown)"
measured_number = 0.88

